As shown below, each of these molecules has a reported pKi value.
Molecular target: D(3) dopamine receptor (Rattus norvegicus, UniProt P19020)
Sequence (P19020 whole entry): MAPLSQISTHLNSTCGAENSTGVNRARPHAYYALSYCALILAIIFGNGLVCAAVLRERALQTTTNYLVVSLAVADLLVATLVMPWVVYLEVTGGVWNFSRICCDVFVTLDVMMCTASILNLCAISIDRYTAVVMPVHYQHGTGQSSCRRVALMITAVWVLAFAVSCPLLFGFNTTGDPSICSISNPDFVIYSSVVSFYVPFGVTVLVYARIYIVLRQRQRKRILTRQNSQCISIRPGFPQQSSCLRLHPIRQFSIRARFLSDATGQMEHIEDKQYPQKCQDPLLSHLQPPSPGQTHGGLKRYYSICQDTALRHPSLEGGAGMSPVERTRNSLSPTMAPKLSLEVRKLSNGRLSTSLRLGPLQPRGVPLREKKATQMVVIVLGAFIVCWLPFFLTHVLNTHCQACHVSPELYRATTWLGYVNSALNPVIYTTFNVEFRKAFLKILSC
Quick note: pKi means taking -log10 of the concentration in moles per liter.

molecule | pKi
COc1c(C(=O)N[C@H]2CCN(C3C4CCCC3CCC4)C2)cc(Br)c2ccccc12 (stereo partly drawn) | 7.92
COc1c(C(=O)NC2CCN(Cc3ccccc3)CC2)cc(Br)c2ccccc12 | 8.96
COc1c(C(=O)N[C@H]2CCN(C3CCCCC3)C2)cc(Br)c2ccccc12 | 9.10
COc1cc(I)cc(C(=O)NC2CC3CCCC(C2)N3Cc2ccccc2)c1OC (stereo not drawn) | 10.40
COc1c(C(=O)NC[C@H]2CCCN2C2CCCCC2)cc(Br)c2ccccc12 | 8.49

Kindly consider the entry below.
## Input Requested read-out pKi, target or system D(3) dopamine receptor (Rattus norvegicus, UniProt P19020), entry COc1c(C(=O)N[C@H]2CCN(C3CCCCCC3)C2)cc(Br)c2ccccc12
## Output 9.70

###

As shown below, each of these molecules has a reported Ki value.
Target: Sigma 2 receptor
Set-up: species or system Rattus norvegicus, Liver, Membrane
Description: Binding affinity for sigma-2 receptor measured on rat liver membranes using [3H]DTG as radioligand in the presence of (+)-pentazocine
Write the value in nM as a bare number.

Guide cases for Ki, answers given:
molecule | Ki, nM
COc1c(C(=O)NC[C@@H]2CCCN2C2[C@H]3C[C@@H]4C[C@@H](C[C@H]2C4)C3)cc(Br)c2ccccc12 (stereo not given in full) | 141
COc1c(C(=O)N[C@H]2CCN(C3CCCC3)C2)cc(Br)c2ccccc12 | 27
COc1c(C(=O)NC2CC3CCCC(C2)N3C2CCCCCC2)cc(Br)c2ccccc12 (stereo not given) | 7.9
COc1c(C(=O)N[C@@H]2CCN(C3[C@H]4C[C@@H]5C[C@@H](C[C@H]3C5)C4)C2)cc(Br)c2ccccc12 (stereo not given in full) | 21.4
COc1c(C(=O)NC2CC3CCCC(C2)N3Cc2ccccc2)cc(Br)c2ccccc12 (stereo not given) | 250
COc1c(C(=O)N[C@H]2CCN(Cc3ccccc3)C2)cc(Br)c2ccccc12 | 42
COc1c(C(=O)NC2CCN(C3[C@H]4C[C@@H]5C[C@@H](C[C@H]3C5)C4)CC2)cc(Br)c2ccccc12 (stereo not given in full) | 55
COc1c(C(=O)N[C@@H]2CCN(C3CCCCCC3)C2)cc(Br)c2ccccc12 | 10

## Input Find the recorded Ki belonging to COc1c(C(=O)N[C@@H]2CCN(C3C4CCCC3CCC4)C2)cc(Br)c2ccccc12 (stereo not given in full) and report it.
## Output 279

## Input Find the recorded Ki belonging to COc1c(C(=O)N[C@@H]2CCN(C3CCCC3)C2)cc(Br)c2ccccc12 and report it.
## Output 15.3

###

Target: D(2) dopamine receptor (Rattus norvegicus, UniProt P61169)
Sequence (P61169 whole entry): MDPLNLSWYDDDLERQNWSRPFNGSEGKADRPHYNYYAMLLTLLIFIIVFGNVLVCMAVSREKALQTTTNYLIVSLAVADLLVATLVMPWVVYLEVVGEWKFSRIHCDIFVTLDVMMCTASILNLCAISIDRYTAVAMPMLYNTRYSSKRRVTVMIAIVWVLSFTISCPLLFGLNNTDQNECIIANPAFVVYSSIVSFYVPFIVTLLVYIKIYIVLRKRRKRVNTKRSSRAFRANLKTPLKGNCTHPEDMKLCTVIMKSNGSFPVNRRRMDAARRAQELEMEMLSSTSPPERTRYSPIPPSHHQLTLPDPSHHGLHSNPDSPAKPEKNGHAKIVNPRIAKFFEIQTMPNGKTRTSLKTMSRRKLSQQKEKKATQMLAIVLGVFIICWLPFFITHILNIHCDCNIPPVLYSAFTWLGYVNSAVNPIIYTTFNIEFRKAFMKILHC
Assay: Binding affinity for dopamine receptor D2 long expressed in Sf9 cells using [125I]IABN radioligand.
recorded-endpoint: Ki (nM)
Write the value in nM as a bare number.

molecule | Ki [nM]
COc1c(C(=O)NC2CCN(C3[C@H]4C[C@@H]5C[C@@H](C[C@H]3C5)C4)CC2)cc(Br)c2ccccc12 (some centres not stated) | 96
COc1c(C(=O)NC[C@H]2CCCN2C2CCC2)cc(Br)c2ccccc12 | 277
COc1c(C(=O)N[C@H]2CCN(C3CCCCCC3)C2)cc(Br)c2ccccc12 | 1.8

## Input Find the recorded Ki belonging to COc1c(C(=O)N[C@H]2CCN(C3CCCC3)C2)cc(Br)c2ccccc12 and report it.
## Output 19

## Input Find the recorded Ki belonging to COc1c(C(=O)N[C@@H]2CCN(C3CCCCCC3)C2)cc(Br)c2ccccc12 and report it.
## Output 19

## Input Find the recorded Ki belonging to COc1c(C(=O)N[C@H]2CCN(Cc3ccccc3)C2)cc(Br)c2ccccc12 and report it.
## Output 9.7

###

Target: Sigma 2 receptor
Design: species or system Rattus norvegicus, Liver, Membrane
recorded-endpoint: log10(Ki) (log10 of the value in nM)
Form field - Quantity: Ki; Unit: nM; Scale: log10

compound | recorded-endpoint | recorded-value
COc1c(C(=O)N[C@@H]2CCN(Cc3ccccc3)C2)cc(Br)c2ccccc12 | log10(Ki) | 1.32

## Input Find the recorded log10(Ki) belonging to COc1c(C(=O)N[C@H]2CCN(C3[C@H]4C[C@@H]5C[C@@H](C[C@H]3C5)C4)C2)cc(Br)c2ccccc12 (some centres undefined) and report it.
## Output 1.85

## Input Find the recorded log10(Ki) belonging to COc1c(C(=O)NC[C@H]2CCCN2C2[C@H]3C[C@@H]4C[C@@H](C[C@H]2C4)C3)cc(Br)c2ccccc12 (some centres undefined) and report it.
## Output 2.50

## Input Find the recorded log10(Ki) belonging to COc1c(C(=O)NC2CCN(C3CCCC3)CC2)cc(Br)c2ccccc12 and report it.
## Output 0.83

###

As shown below, each of these compounds has a reported pKi value.
Target: D(3) dopamine receptor (Rattus norvegicus, UniProt P19020)
Quick note: pKi means taking -log10 of the concentration in moles per liter.

Guide cases for pKi, answers given:
compound | pKi
COc1c(C(=O)NC[C@H]2CCCN2Cc2ccccc2)cc(Br)c2ccccc12 | 8.85
COc1c(C(=O)N[C@H]2CCN(Cc3ccccc3)C2)cc(Br)c2ccccc12 | 9.00
COc1c(C(=O)N[C@@H]2CCN(C3[C@H]4C[C@@H]5C[C@@H](C[C@H]3C5)C4)C2)cc(Br)c2ccccc12 (some centres not stated) | 7.89

## Input Requested read-out pKi, target or system D(3) dopamine receptor (Rattus norvegicus, UniProt P19020), entry COc1c(C(=O)NC[C@@H]2CCCN2Cc2ccccc2)cc(Br)c2ccccc12
## Output 7.84

## Input Requested read-out pKi, target or system D(3) dopamine receptor (Rattus norvegicus, UniProt P19020), entry COc1c(C(=O)NC2CC3CCCC(C2)N3C2CCCCCC2)cc(Br)c2ccccc12 (configuration not stated)
## Output 7.39

## Input Requested read-out pKi, target or system D(3) dopamine receptor (Rattus norvegicus, UniProt P19020), entry COc1c(C(=O)NC[C@H]2CCCN2C2CCCCCC2)cc(Br)c2ccccc12
## Output 8.62

## Input Requested read-out pKi, target or system D(3) dopamine receptor (Rattus norvegicus, UniProt P19020), entry COc1c(C(=O)N[C@@H]2CCN(C3CCCCCC3)C2)cc(Br)c2ccccc12
## Output 8.54

## Input Requested read-out pKi, target or system D(3) dopamine receptor (Rattus norvegicus, UniProt P19020), entry COc1c(C(=O)NC[C@H]2CCCN2C2[C@H]3C[C@@H]4C[C@@H](C[C@H]2C4)C3)cc(Br)c2ccccc12 (some centres not stated)
## Output 8.59

## Input Requested read-out pKi, target or system D(3) dopamine receptor (Rattus norvegicus, UniProt P19020), entry COc1c(C(=O)NC[C@@H]2CCCN2C2[C@H]3C[C@@H]4C[C@@H](C[C@H]2C4)C3)cc(Br)c2ccccc12 (some centres not stated)
## Output 7.17

## Input Requested read-out pKi, target or system D(3) dopamine receptor (Rattus norvegicus, UniProt P19020), entry COc1c(C(=O)NC2CCN(C3[C@H]4C[C@@H]5C[C@@H](C[C@H]3C5)C4)CC2)cc(Br)c2ccccc12 (some centres not stated)
## Output 7.04

## Input Requested read-out pKi, target or system D(3) dopamine receptor (Rattus norvegicus, UniProt P19020), entry COc1c(C(=O)NC[C@@H]2CCCN2C2CCCCC2)cc(Br)c2ccccc12
## Output 6.48

## Input Requested read-out pKi, target or system D(3) dopamine receptor (Rattus norvegicus, UniProt P19020), entry COc1c(C(=O)N[C@@H]2CCN(C3C4CCCC3CCC4)C2)cc(Br)c2ccccc12 (some centres not stated)
## Output 7.88

###

Molecular target: D(2) dopamine receptor (Rattus norvegicus, UniProt P61169)
Assay: Binding affinity for dopamine receptor D2 long expressed in Sf9 cells using [125I]IABN radioligand.
As shown below, each of these compounds has a reported Ki value.
Kindly write the number and append the unit.

compound | Ki
COc1c(C(=O)NC2CCN(C3CCCCC3)CC2)cc(Br)c2ccccc12 | 94 nM

Kindly consider the entry below.
## Input Requested read-out Ki, target or system D(2) dopamine receptor (Rattus norvegicus, UniProt P61169), entry COc1c(C(=O)NC2CCN(C3C4CCCC3CCC4)CC2)cc(Br)c2ccccc12 (stereo unspecified)
## Output 771 nM

###

As shown below, each of these compounds has a reported pKi value.
Target: Sigma 2 receptor
Design: species or system Rattus norvegicus, Liver, Membrane
Quick note: pKi means taking -log10 of the concentration in moles per liter.

Guide cases for pKi, answers given:
chem-smiles | pKi
COc1c(C(=O)N[C@@H]2CCN(C3CCCCC3)C2)cc(Br)c2ccccc12 | 8.01
COc1c(C(=O)NC[C@H]2CCCN2C2CCCCC2)cc(Br)c2ccccc12 | 7.60
COc1c(C(=O)NC2CCN(C3CCCCCC3)CC2)cc(Br)c2ccccc12 | 8.59
COc1c(C(=O)NC[C@@H]2CCCN2Cc2ccccc2)cc(Br)c2ccccc12 | 6.65

## Input Requested read-out pKi, target or system Sigma 2 receptor, entry COc1c(C(=O)NC[C@H]2CCCN2C2CCCC2)cc(Br)c2ccccc12
## Output 7.46
